System: THP-1
Assay: Induction of Cox2 gene expression in human THP1 cells at 10 uM by array plate mRNA assay
Type: functional
observed_property: Activity
// return just the number, without any unit appended

# compound, Activity
measured = [
    ("O=S(=O)(c1ccccc1)N(CC(F)(F)F)c1ccc(C(O)(C(F)(F)F)C(F)(F)F)cc1", 0.93),
    ("C[C@@H]1C2Cc3ccc(O)cc3[C@]1(C)CCCN2CCc1ccccc1", 1.2),
    ("O=C(O)Cc1cccc(OCCCN(Cc2cccc(C(F)(F)F)c2Cl)CC(c2ccccc2)c2ccccc2)c1", 1.2),
]

Here is the next item to consider.
## Task Param item = C[C@H](CC[C@@H]1OC1(C)C)[C@H]1CC[C@H]2[C@@H]3CC=C4C[C@@H](O)CC[C@]4(C)[C@H]3CC[C@]12C [24(S),25-EPOXYCHOLESTEROL] ; retrieve measured Activity.
## Result 1.35

====

Test system: THP-1
Assay: Induction of ABCA1 gene expression in human THP1 cells at 10 uM by array plate mRNA assay
Format: functional
observed_property: Activity
// return just the number, without any unit appended

Some entries whose results are on file:
# compound, Activity
rows = [
    ("O=C(O)Cc1cccc(OCCCN(Cc2cccc(C(F)(F)F)c2Cl)CC(c2ccccc2)c2ccccc2)c1", 10.04),
    ("C[C@@H]1C2Cc3ccc(O)cc3[C@]1(C)CCCN2CCc1ccccc1", 4.53),
    ("C[C@H](CC[C@@H]1OC1(C)C)[C@H]1CC[C@H]2[C@@H]3CC=C4C[C@@H](O)CC[C@]4(C)[C@H]3CC[C@]12C [24(S),25-EPOXYCHOLESTEROL]", 5.59),
]

Here is the next item to consider.
## Task Param item = O=S(=O)(c1ccccc1)N(CC(F)(F)F)c1ccc(C(O)(C(F)(F)F)C(F)(F)F)cc1 [T091317] ; retrieve measured Activity.
## Result 5.9

====

Tested on: THP-1
Test: Induction of APOE gene expression in human THP1 cells at 10 uM by array plate mRNA assay
Type: functional
observed_property: Activity
// return just the number, without any unit appended

# compound, observed_property, measured_value
measured = [
    ("O=S(=O)(c1ccccc1)N(CC(F)(F)F)c1ccc(C(O)(C(F)(F)F)C(F)(F)F)cc1 [T091317]", "Activity", 4.2),
    ("O=C(O)Cc1cccc(OCCCN(Cc2cccc(C(F)(F)F)c2Cl)CC(c2ccccc2)c2ccccc2)c1", "Activity", 4.13),
    ("C[C@H](CC[C@@H]1OC1(C)C)[C@H]1CC[C@H]2[C@@H]3CC=C4C[C@@H](O)CC[C@]4(C)[C@H]3CC[C@]12C [24(S),25-EPOXYCHOLESTEROL]", "Activity", 2.61),
]

Here is the next item to consider.
## Task Param item = `C[C@@H]1C2Cc3ccc(O)cc3[C@]1(C)CCCN2CCc1ccccc1` ; retrieve measured Activity.
## Result 3.34

====

System: THP-1
Assay: Induction of NR1H2 gene expression in human THP1 cells at 10 uM by array plate mRNA assay
Format: functional
observed_property: Activity

# molecule, measured_value
data = [
    ("O=S(=O)(c1ccccc1)N(CC(F)(F)F)c1ccc(C(O)(C(F)(F)F)C(F)(F)F)cc1 [T091317]", 1.17),
]

## Task Param item = C[C@H](CC[C@@H]1OC1(C)C)[C@H]1CC[C@H]2[C@@H]3CC=C4C[C@@H](O)CC[C@]4(C)[C@H]3CC[C@]12C [24(S),25-EPOXYCHOLESTEROL] ; retrieve measured Activity.
## Result 1.09

## Task Param item = `O=C(O)Cc1cccc(OCCCN(Cc2cccc(C(F)(F)F)c2Cl)CC(c2ccccc2)c2ccccc2)c1` ; retrieve measured Activity.
## Result 1.22

## Task Param item = `C[C@@H]1C2Cc3ccc(O)cc3[C@]1(C)CCCN2CCc1ccccc1` ; retrieve measured Activity.
## Result 1.16
